IC50 for MKK4 (Homo sapiens, UniProt P45985) - collated from the literature.
observed.property: IC50

CCCS(=O)(=O)Nc1ccc(F)c(C(=O)c2c[nH]c3ncc(-c4cc5c(cc4Cl)OCCO5)cc23)c1F : < 500 nM
CCCS(=O)(=O)Nc1ccc(F)c(C(=O)c2c[nH]c3ncc(-c4ccc(OC(F)(F)F)cc4)cc23)c1F : 100 to 1000 nM
CCCS(=O)(=O)Nc1ccc(F)c(C(=O)c2c[nH]c3ncc(-c4ccc(N)nc4)cc23)c1F : 100 to 1000 nM
CCCS(=O)(=O)Nc1ccc(F)c(C(=O)c2c[nH]c3ncc(-c4cncnc4)cc23)c1F : 1000 to 10000 nM
CCCS(=O)(=O)Nc1c(F)ccc(C(=O)c2c[nH]c3ncc(-c4cnc(-c5ccc6nc[nH]c6c5)nc4)cc23)c1F : 1000 to 10000 nM
CCCS(=O)(=O)Nc1c(F)ccc(C(=O)c2c[nH]c3ncc(-c4ccc(C5CC5)nc4C)cc23)c1F : < 100 nM
CCCS(=O)(=O)Nc1ccc(F)c(C(=O)c2c[nH]c3ncc(N4CCC(=O)CC4)cc23)c1F : 1000 to 10000 nM
CCCS(=O)(=O)Nc1c(F)ccc(C(=O)c2n[nH]c3ncc(-c4cnc(C(C)(C)C)nc4)cc23)c1F : < 100 nM
CCCS(=O)(=O)Nc1c(F)ccc(C(=O)c2c[nH]c3ncc(-c4cnc(N5CC[C@H](O)C5)nc4)cc23)c1F : < 100 nM
CCCS(=O)(=O)Nc1c(F)ccc(C(=O)c2c[nH]c3ncc(-c4cnc(SC(C)C)nc4)cc23)c1F : 100 to 1000 nM
CCCS(=O)(=O)Nc1ccc(F)c(C(=O)c2c[nH]c3ncc(-c4ccc(S(=O)(=O)C(F)F)cc4)cc23)c1F : 100 to 1000 nM
O=C(c1ccc(F)c(NS(=O)(=O)Cc2ccccc2)c1F)c1n[nH]c2ncc(-c3ccncc3)cc12 : < 500 nM
CCCS(=O)(=O)Nc1c(F)ccc(C(=O)c2c[nH]c3ncc(-c4ccccc4C)cc23)c1F : 100 to 1000 nM
CCCS(=O)(=O)Nc1ccc(F)c(C(=O)c2c[nH]c3ncc(-c4ccc([N+](=O)[O-])cc4)cc23)c1F : 100 to 1000 nM
CCCS(=O)(=O)Nc1ccc(F)c(C(=O)c2c[nH]c3ncc(-c4ccc(C(C)C)cc4)cc23)c1F : 500 to 1000 nM
CCCS(=O)(=O)Nc1c(F)ccc(C(=O)c2n[nH]c3ncc(-c4cnc(C5CC5)nc4C)cc23)c1F : 100 to 1000 nM
CCCS(=O)(=O)Nc1ccc(F)c(C(=O)c2c[nH]c3ncc(-c4ccc(OC)c(OC)c4)cc23)c1F : 100 to 1000 nM
CCCS(=O)(=O)Nc1ccc(F)c(C(=O)c2n[nH]c3ncc(-c4ccc(S(C)(=O)=O)cc4)cc23)c1F : 500 to 1000 nM
CCCS(=O)(=O)Nc1ccc(F)c(C(=O)c2c[nH]c3ncc(-c4ccc(S(C)(=O)=O)nc4)cc23)c1F : 100 to 1000 nM
CCCS(=O)(=O)Nc1ccc(F)c(C(=O)c2c[nH]c3ncc(-c4ccc(SCCN)cc4)cc23)c1F : 100 to 1000 nM
CCCS(=O)(=O)Nc1c(F)ccc(C(=O)c2n[nH]c3ncc(-c4cnc(SC)nc4C)cc23)c1F : < 100 nM
CCCS(=O)(=O)Nc1ccc(F)c(C(=O)c2n[nH]c3ncc(-c4ccccc4OC)cc23)c1F : 500 to 1000 nM
CCCS(=O)(=O)Nc1ccc(F)c(C(=O)c2c[nH]c3ncc(-c4ccccc4N)cc23)c1F : 100 to 1000 nM
CCCS(=O)(=O)Nc1ccc(F)c(C(=O)c2n[nH]c3ncc(-c4ccccc4O)cc23)c1F : 500 to 1000 nM
CCCS(=O)(=O)Nc1ccc(F)c(C(=O)c2c[nH]c3ncc(-c4ccccn4)cc23)c1F : 1000 to 10000 nM
CCCS(=O)(=O)Nc1ccc(F)c(C(=O)c2c[nH]c3ncc(-c4cccc(F)c4)cc23)c1F : 100 to 1000 nM
